Measured MIC accompanies every entry in the list below.
test system: Staphylococcus aureus; test: In vitro antibacterial activity against erythromycin susceptible Staphylococcus aureus 25923; type: functional
A number alone suffices; assume µg/mL.

Worked examples, 4 molecules total:
MOLECULE: CC[C@H]1OC(=O)[C@H](C)[C@@H](O[C@H]2C[C@@](C)(OC)[C@@H](O)[C@H](C)O2)[C@H](C)[C@@H](O[C@@H]2O[C@H](C)C[C@H](N(C)C)[C@H]2O)[C@](C)(O)C[C@@H](C)C(=O)[C@H](C)[C@@H](O)[C@]1(C)O [ERYTHROMYCIN]
MIC (µg/mL): 0.5

MOLECULE: CC[C@H]1OC(=O)C[C@@H](O)[C@H](C)[C@@H](O[C@@H]2O[C@H](C)[C@@H](O[C@H]3C[C@@](C)(O)[C@@H](O)[C@H](C)O3)[C@H](N(C)C)[C@H]2O)[C@@H](CC=O)C[C@@H](C)C(=O)/C=C/C(C)=C/[C@@H]1CO[C@@H]1O[C@H](C)[C@@H](O)[C@@H](OC)[C@H]1OC [TYLOSIN]
MIC (µg/mL): 2

MOLECULE: C=CCO[C@H]1[C@H](N(C)C)[C@@H](O)[C@H](O[C@H]2[C@@H](CC=O)C[C@@H](C)C(=O)/C=C/C(C)=C/[C@H](CO[C@@H]3O[C@H](C)[C@@H](O)[C@@H](OC)[C@H]3OC)[C@@H](CC)OC(=O)C[C@@H](O)[C@@H]2C)O[C@@H]1C
MIC (µg/mL): 1

MOLECULE: CC[C@H]1OC(=O)C[C@@H](O)[C@H](C)[C@@H](O[C@@H]2O[C@H](C)[C@@H](OC(=O)NCCc3ccccc3)[C@H](N(C)C)[C@H]2O)[C@@H](CC=O)C[C@@H](C)C(=O)/C=C/C(C)=C/[C@@H]1CO[C@@H]1O[C@H](C)[C@@H](O)[C@@H](OC)[C@H]1OC
MIC (µg/mL): 2

Query: Which MIC value belongs to `CC[C@H]1OC(=O)C[C@@H](O)[C@H](C)[C@@H](O[C@@H]2O[C@H](C)[C@@H](O/C=C\Cc3cnc4ccccc4c3)[C@H](N(C)C)[C@H]2O)[C@@H](CC=O)C[C@@H](C)C(=O)/C=C/C(C)=C/[C@@H]1CO[C@@H]1O[C@H](C)[C@@H](O)[C@@H](OC)[C@H]1OC` ?
Response: 0.5

----------
system: Staphylococcus aureus; assay: In vitro antibacterial activity against erythromycin susceptible Staphylococcus aureus 25923; assay type: functional
MEASURED_PROPERTY: MIC (µg/mL)
// units = µg/mL; emit number, no label

Query: For the molecule `CC[C@H]1OC(=O)C[C@@H](O)[C@H](C)[C@@H](O[C@@H]2O[C@H](C)[C@@H](OC/C=C/c3cnc4ccccc4c3)[C@H](N(C)C)[C@H]2O)[C@@H](CC=O)C[C@@H](C)C(=O)/C=C/C(C)=C/[C@@H]1CO[C@@H]1O[C@H](C)[C@@H](O)[C@@H](OC)[C@H]1OC` , what MIC is on record?
Response: 0.5
